Test system: 201T
protocol-description: relative viability (nuclei count vs DMSO), 5 days (fraction); higher = more cells survive
applied-conditions: first compound 0.08 µM
Under this convention, 1.0 denotes relative viability strictly below 0.7 and 0.0 denotes relative viability at or above 0.7.

Query :: hey, is relative viability for O=c1[nH]c2ccccc2n1C1CCN(CCCC(c2ccc(F)cc2)c2ccc(F)cc2)CC1 [Pimozide] + Nc1ncn([C@H]2C[C@H](O)[C@@H](CO)O2)c(=O)n1 [Decitabine] (partner 2 µM) lower than 0.7 or not?
Result :: 0.0

Query :: Dear colleague, could you confirm whether relative viability of Cc1cnc(-c2cnc(NCCNc3ccc(C#N)cn3)nc2-c2ccc(Cl)cc2Cl)[nH]1 + N=C(N)NC(=N)NCCc1ccccc1 [Phenformin] (partner 250 µM) falls below 0.7? Thanks.
Result :: 1.0

Query :: Hi there! Is relative viability for O=c1[nH]c2ccccc2n1C1CCN(CCCC(c2ccc(F)cc2)c2ccc(F)cc2)CC1 [Pimozide] + CS(=O)(=O)CCNCc1ccc(-c2ccc3ncnc(Nc4ccc(OCc5cccc(F)c5)c(Cl)c4)c3c2)o1 [Lapatinib] (partner 2 µM) below 0.7, do you know?
Result :: 0.0

Query :: Please indicate whether the reported relative viability of O=c1[nH]c2ccccc2n1C1CCN(CCCC(c2ccc(F)cc2)c2ccc(F)cc2)CC1 [Pimozide] + Nc1nc2[nH]cc(CCc3ccc(C(=O)N[C@@H](CCC(=O)O)C(=O)O)cc3)c2c(=O)[nH]1 [Pemetrexed] (partner 0.2 µM) is strictly below 0.7.
Result :: 1.0

Query :: I wonder whether Cc1cnc(-c2cnc(NCCNc3ccc(C#N)cn3)nc2-c2ccc(Cl)cc2Cl)[nH]1 + CC(=O)c1c(C)c2cnc(Nc3ccc(N4CCNCC4)cn3)nc2n(C2CCCC2)c1=O [Palbociclib] (partner 0.5 µM) has relative viability below 0.7. Can you tell?
Result :: 1.0

Measured values drawn from the supplement of paper PMC10307832 for this set.
